Where do the numbers come from? From BindingDB's records for doi:10.1021/acsmedchemlett.6b00306.

Target: Proteinase-activated receptor 2 (Homo sapiens, UniProt P55085)
Sequence (P55085 whole entry): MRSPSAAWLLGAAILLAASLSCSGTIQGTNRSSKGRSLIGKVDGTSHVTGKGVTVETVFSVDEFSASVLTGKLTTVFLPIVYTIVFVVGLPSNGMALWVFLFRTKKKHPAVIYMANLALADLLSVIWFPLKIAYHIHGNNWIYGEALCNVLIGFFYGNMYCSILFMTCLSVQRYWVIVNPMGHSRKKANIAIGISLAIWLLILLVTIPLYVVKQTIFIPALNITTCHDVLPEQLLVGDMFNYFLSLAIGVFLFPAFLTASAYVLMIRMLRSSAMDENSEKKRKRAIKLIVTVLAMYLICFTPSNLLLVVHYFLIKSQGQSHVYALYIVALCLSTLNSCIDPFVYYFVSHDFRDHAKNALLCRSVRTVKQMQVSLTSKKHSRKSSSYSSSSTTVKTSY
Assay: Antagonist activity at PAR2 in human HT-29 cells assessed as inhibition of 2f-LIGRLO-NH2-stimulated intracellular calcium release preincubated for 30 mins followed by 2f-LIGRLO-NH2 stimulation measured for 60 sec by Fluo-3 AM dye based FLIPR assay
readout.kind: IC50 (µM)
Entry rule: numbers only, all in µM.

Ask: Form entry - test system: Proteinase-activated receptor 2 (Homo sapiens, UniProt P55085); read-out: IC50; compound: CC[C@H](C)[C@H](NC(=O)[C@H](CC1CCCCC1)NC(=O)c1ccno1)C(=O)N1CCCC[C@H]1C(=O)NC(C)(C)C
Result: 7.94
